biological target: furin, P09958; test: furin cleavage Z-score vs untreated control; higher = more cleavage, active = 3.5 or more, inactive = 1 or less, 8 variable residues between constant flanks; conditions: 30 min;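 note: purified furin at 1:10 enzyme:substrate in 50 mM HEPES pH 7.5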
Sequence (P09958 whole entry): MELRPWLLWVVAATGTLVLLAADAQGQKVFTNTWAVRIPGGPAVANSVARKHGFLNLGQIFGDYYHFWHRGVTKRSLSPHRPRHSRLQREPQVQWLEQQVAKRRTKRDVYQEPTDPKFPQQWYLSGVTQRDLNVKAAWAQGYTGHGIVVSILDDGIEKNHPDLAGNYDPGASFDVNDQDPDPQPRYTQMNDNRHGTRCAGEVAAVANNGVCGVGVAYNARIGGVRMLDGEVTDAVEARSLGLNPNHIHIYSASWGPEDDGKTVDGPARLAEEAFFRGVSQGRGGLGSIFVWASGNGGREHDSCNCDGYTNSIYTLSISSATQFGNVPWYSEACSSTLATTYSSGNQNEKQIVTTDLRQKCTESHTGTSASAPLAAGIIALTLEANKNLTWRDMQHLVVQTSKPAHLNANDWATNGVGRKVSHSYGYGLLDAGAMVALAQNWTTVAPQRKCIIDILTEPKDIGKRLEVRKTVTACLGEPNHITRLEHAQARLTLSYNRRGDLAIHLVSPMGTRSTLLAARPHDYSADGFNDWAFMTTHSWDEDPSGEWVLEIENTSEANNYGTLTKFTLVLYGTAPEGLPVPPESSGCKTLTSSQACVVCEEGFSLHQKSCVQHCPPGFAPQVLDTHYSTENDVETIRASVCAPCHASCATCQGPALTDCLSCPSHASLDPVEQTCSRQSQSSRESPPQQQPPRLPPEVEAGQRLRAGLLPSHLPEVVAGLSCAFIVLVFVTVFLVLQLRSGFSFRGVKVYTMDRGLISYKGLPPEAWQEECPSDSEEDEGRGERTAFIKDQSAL
The other results are listed elsewhere or left out. The true hit rate is not given.
TEST_READOUT: furin cleavage Z-score
Give only the figure.

Here is how some sequences turned out for furin cleavage Z-score.
{"columns": ["SEQUENCE_DATA", "furin cleavage Z-score"],
 "data": [
  ["CAMEECSQYLAGNASASA [HC1749]", 0.195],
  ["CALVNLLPAIAGNASASA [HC1100]", 0.808],
  ["CARPIRSRRAAGNASASA [FS-1563]", 9.54],
  ["CARKDRGASKAGNASASA [FS-1826]", 0.14],
  ["CARGRRGMKDAGNASASA [FS-2394]", 2.14]
]}

Turning now to a further sequence:
Return the recorded furin cleavage Z-score value; entry: CAACQRQKKVAGNASASA [HC1393]
-0.382
